- measurement description: Pharmacokinetics on single dose in mice (iv and po)
- Format: in vivo, male ICR mice
- condition notes: male, mouse, plasma; ICR mice, po 10 mg/kg; read-out: Tmax

>  <compound>
C=CCn1c(=O)c2cnc(Nc3ccc(N4CCN(C)CC4)cc3)nc2n1-c1cccc(C(C)(C)O)n1 [AZD1775, reference compound]

>  <Tmax [min]>
25.2

$$$$

====

- study system: UniProtKB P33261
- Sequence (P33261 whole entry): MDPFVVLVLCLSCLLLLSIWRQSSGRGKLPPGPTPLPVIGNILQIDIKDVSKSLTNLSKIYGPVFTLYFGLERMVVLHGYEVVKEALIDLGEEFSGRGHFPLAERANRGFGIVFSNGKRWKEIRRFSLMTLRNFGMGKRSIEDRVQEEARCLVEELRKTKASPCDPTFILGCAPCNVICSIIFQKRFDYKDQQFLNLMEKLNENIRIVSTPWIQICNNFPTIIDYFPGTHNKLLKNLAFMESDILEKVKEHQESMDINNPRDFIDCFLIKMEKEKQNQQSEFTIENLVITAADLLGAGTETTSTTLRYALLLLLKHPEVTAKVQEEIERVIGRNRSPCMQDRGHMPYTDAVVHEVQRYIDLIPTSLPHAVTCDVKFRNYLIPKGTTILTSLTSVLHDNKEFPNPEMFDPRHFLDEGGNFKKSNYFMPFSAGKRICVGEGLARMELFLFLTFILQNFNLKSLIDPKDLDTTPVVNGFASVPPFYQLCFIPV
- measurement description: Cytochrome P450 inhibition (fluorescence), CYP2C19
- Type: in vitro ADME
readout kind: IC50

>  <molecule>
C=CCn1c(=O)c2cnc(Nc3ccc(N4CCN(C)CC4)cc3)nc2n1-c1ccc2c(n1)C(C)(O)C1(CC1)C2 (stereo not shown) [Compound 3]

>  <study system>
UniProtKB P33261

>  <observed result>
> 10 µM

$$$$
